- Measured on: T1, ZFP SBS#657 (synthetic)
- T1 chain: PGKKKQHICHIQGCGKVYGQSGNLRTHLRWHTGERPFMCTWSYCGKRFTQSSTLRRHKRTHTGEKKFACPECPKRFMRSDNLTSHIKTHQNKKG
- Assay protocol: EMSA
- Particulars: tags: MBP fusion
Quantity name: Kd

> print(dat)
                                     binder  quantity.name  observed.result
1  TAGGCATAAA (dsDNA) DNA 1: TAGGCATAAA DNA 2: TTTATGCCTA             Kd           300 nM
